Metric name: melting point

The following compounds have reported results that may help.
stdin: Dear colleague, please send me the reported melting point for `CC(C)(C)C(Cl)=NNc1cc(Cl)ccc1Cl` when you can.
stdout: 50 to 51 °C

stdin: Dear colleague, please send me the reported melting point for `CN1CCC(=C(c2ccn(C)c2)c2ncc[nH]2)CC1` when you can.
stdout: 155 °C

stdin: Dear colleague, please send me the reported melting point for `O=C(O)CCCCN(C(=O)c1ccc(Cl)cc1)c1ccc2c(c1)CCC2` when you can.
stdout: 132 to 134 °C

stdin: Dear colleague, please send me the reported melting point for Cn1nc(-c2cnc3[nH]cc(C(=O)NC4CCS(=O)(=O)C4)c3n2)c2ccc(Cl)cc21 (stereo unspecified) when you can.
stdout: 383 to 385 °C

---
stdin: Dear colleague, please send me the reported melting point for `O=C(CNC(=O)c1ccc([N+](=O)[O-])c(I(=O)=O)c1)OCC(Cl)(Cl)Cl` when you can.
stdout: 128 to 130 °C

stdin: Dear colleague, please send me the reported melting point for `Cn1nc(C(=O)NCc2ccc(Cl)cc2)c(=O)c2cc(C#CCCO)ccc21` when you can.
stdout: 227 to 229 °C

---

Below: a set of entries, each annotated with reported melting point.

The following molecules have reported results that may help.
stdin: Dear colleague, please send me the reported melting point for `CCc1cc(C(C)=O)c(O)cc1OCc1ccc(C(=O)O)c(O)c1` when you can.
stdout: 214 to 216 °C

stdin: Dear colleague, please send me the reported melting point for CCOC(=O)C(C#N)(Cc1cc(OC)c(OC)c(OC)c1)C(OCC)OCC (stereo not given) when you can.
stdout: 95 to 97 °C

stdin: Dear colleague, please send me the reported melting point for `Cc1ccccc1CSc1c(O)cc(-c2ccccc2)oc1=O` when you can.
stdout: 176 to 178 °C

---
stdin: Dear colleague, please send me the reported melting point for `CC(=O)c1ccc(S(=O)(=O)n2c(CCC(=O)O)cc3cc(Cl)ccc32)cc1` when you can.
stdout: 159 to 161 °C

stdin: Dear colleague, please send me the reported melting point for O=C1Nc2ccccc2SC(c2ccccc2)C1CO (stereo not given) when you can.
stdout: 248 °C

---

Below: a set of entries, each annotated with reported melting point.

stdin: Dear colleague, please send me the reported melting point for `c1ccc2nc(COc3ccc(CCc4ccc(-c5nnn[nH]5)cc4)cc3)ccc2c1` when you can.
stdout: 203 to 206 °C

---
stdin: Dear colleague, please send me the reported melting point for `Cc1ccc(-c2c(C(=O)Nc3nccs3)nc(-c3cccc4ccccc34)n2CCN2CCOCC2)cc1` when you can.
stdout: 226 to 227 °C

stdin: Dear colleague, please send me the reported melting point for `CC1(C)CCC(C)(C)c2cc(-c3cc(-c4ccc(C(=O)O)cc4)ccc3OCCCCCCO)ccc21` when you can.
stdout: 200 to 201 °C

stdin: Dear colleague, please send me the reported melting point for `O=C(C[C@H](C(=O)N[C@H](COC(=O)OCc1ccccc1)c1ccccc1)n1ccc(-c2ccc(-c3ccncc3)cc2)c1)OCc1ccccc1` when you can.
stdout: 138 to 140 °C

stdin: Dear colleague, please send me the reported melting point for CC1(C(O)(Cc2ccccc2Cl)Cn2cncn2)CCCC1 (stereo not drawn) when you can.
stdout: 110 °C

stdin: Dear colleague, please send me the reported melting point for `CS(=O)(=O)Nc1ccc(NS(C)(=O)=O)c(S)c1` when you can.
stdout: 174 to 176 °C

stdin: Dear colleague, please send me the reported melting point for `CC(C)c1ccccc1N/C(S)=C(\C#N)C(=O)Nc1ccc(-c2ncn(-c3ccc(OC(F)(F)F)cc3)n2)cc1` when you can.
stdout: 159 to 162 °C

stdin: Dear colleague, please send me the reported melting point for `O=C(O)c1cccc(Nc2nc(Oc3ccccc3)nc(Oc3ccccc3Cl)n2)c1` when you can.
stdout: 250 to 252 °C

---

Below: a set of entries, each annotated with reported melting point.

The following compounds have reported results that may help.
stdin: Dear colleague, please send me the reported melting point for `O=Cc1ccc(OC(F)F)c2oc3ccc([N+](=O)[O-])cc3c12` when you can.
stdout: 245 to 248 °C

stdin: Dear colleague, please send me the reported melting point for `Cc1cc(Cl)ccc1NC(=O)NCCCl` when you can.
stdout: 190 °C

stdin: Dear colleague, please send me the reported melting point for CN(C)c1ccc(C2CCc3ccccc3O2)cc1 (stereo not given) when you can.
stdout: 77 to 78 °C

---
stdin: Dear colleague, please send me the reported melting point for COc1ccc(C2=NN(Cc3ccc(O)cc3)C(=O)[C@H]3CCCC[C@@H]23)cc1OC (relative stereo) when you can.
stdout: 177 to 179 °C

stdin: Dear colleague, please send me the reported melting point for `Cc1cc2[nH]c(=O)ccc2c(Br)n1` when you can.
stdout: 276 to 278 °C

---

Below: a set of entries, each annotated with reported melting point.

The following compounds have reported results that may help.
stdin: Dear colleague, please send me the reported melting point for `Cc1c(-c2ccc(O)c(Cl)c2)sc(C=O)c1-c1ccc(O)c(F)c1` when you can.
stdout: 227 to 229 °C

stdin: Dear colleague, please send me the reported melting point for CN(C)C1(c2ccccc2)CCC(CNC(=O)N2CCCC(c3c[nH]c4ccccc34)C2)CC1 (centres undefined) when you can.
stdout: 95 to 99 °C

stdin: Dear colleague, please send me the reported melting point for COc1ccc(S(=O)(=O)NC(CCF)C(=O)OC(C)(C)C)cc1 (centres undefined) when you can.
stdout: 89 to 90 °C

---
stdin: Dear colleague, please send me the reported melting point for `CCc1nn(C(=O)OC(C)(C)C)c2cc(-c3ccc4nnn(Cc5ccc6ncccc6c5)c4n3)ccc12` when you can.
stdout: 185 to 188 °C

stdin: Dear colleague, please send me the reported melting point for `O=[N+]([O-])c1ccc(N2CCN(c3ccncc3)CC2)cc1` when you can.
stdout: 213 to 216 °C

stdin: Dear colleague, please send me the reported melting point for `CC(C)n1nc2ccc(Cl)c([N+](=O)[O-])c2n1` when you can.
stdout: 67 to 70 °C

stdin: Dear colleague, please send me the reported melting point for `CCOC(=O)c1cn(C2CC2)c2c(F)c(N3CC[C@H](N)C3)c(F)cc2c1=O` when you can.
stdout: 227 to 228 °C

stdin: Dear colleague, please send me the reported melting point for `NC(=O)c1cc2c(Oc3ccc(C(F)(F)F)cc3)cnc(Cl)c2s1` when you can.
stdout: 175 to 176 °C

stdin: Dear colleague, please send me the reported melting point for CC(=O)OCCN1C(=O)CN2CCOC2(c2ccccc2F)c2cc(Cl)ccc21 (centres undefined) when you can.
stdout: 120 to 123 °C

---

Metric name: melting point

stdin: Dear colleague, please send me the reported melting point for `O=C(c1ccccc1)N1CCc2[nH]c3cc(-c4ccccc4)ccc3c2CC1` when you can.
stdout: 213 to 232 °C

stdin: Dear colleague, please send me the reported melting point for `CC(=O)NC1(c2ccc(CCl)cc2)CC1` when you can.
stdout: 124 to 127 °C

stdin: Dear colleague, please send me the reported melting point for CCCCC(CC)C(=O)NC(=S)Nc1nc(-c2ccc3c(c2)CCCC3)cs1 (centres undefined) when you can.
stdout: 178 to 179 °C

stdin: Dear colleague, please send me the reported melting point for `O=C(O)c1ccc(CCCc2c(CCNS(=O)(=O)Cc3ccc(Cl)c(Cl)c3)n(C(c3ccccc3)c3ccccc3)c3ccc(Cl)cc23)cc1` when you can.
stdout: 190 °C

stdin: Dear colleague, please send me the reported melting point for `CNC(=O)C(=O)CCCCCCSc1ccc2ccccc2c1` when you can.
stdout: 94 to 95 °C

---
stdin: Dear colleague, please send me the reported melting point for CCOC(=O)C(C)C(NC(C)=O)C(C(C)=O)C(=O)Nc1ccc(Cl)cc1 (centres undefined) when you can.
stdout: 169 to 173 °C

stdin: Dear colleague, please send me the reported melting point for `O=C(Nc1ccc(Cl)c(C(F)(F)F)c1)N[C@H]1CC[C@H](Oc2ccc(C(F)(F)F)cn2)CC1` when you can.
stdout: 176 to 178 °C

stdin: Dear colleague, please send me the reported melting point for `C=CCN(CC=C)c1nc(NC(=O)Cc2ccsc2)n2oc(=O)nc2n1` when you can.
stdout: 159 to 161 °C

stdin: Dear colleague, please send me the reported melting point for `Cc1nc(CSc2cccc(Cl)c2Cl)no1` when you can.
stdout: 66 to 68 °C

---

Below: a set of entries, each annotated with reported melting point.

stdin: Dear colleague, please send me the reported melting point for COc1ccc(CS(=O)(=O)C(C)(Cc2ccccc2)C(=O)O)cc1 (stereo not given) when you can.
stdout: 58 to 59 °C

stdin: Dear colleague, please send me the reported melting point for OC1Cc2ccccc2Sc2cc(F)c(F)cc21 (stereo not given) when you can.
stdout: 98 to 100 °C

stdin: Dear colleague, please send me the reported melting point for `COCC(=O)N(CC(C)=O)c1c(C)cccc1C` when you can.
stdout: 56 to 57 °C

stdin: Dear colleague, please send me the reported melting point for `Cc1ccc(C2CCN(CCCCNC(=O)c3ccc(-c4ccc(C#N)cc4)cc3)CC2)c(O)c1` when you can.
stdout: 184 °C

---
stdin: Dear colleague, please send me the reported melting point for `O=Cc1cc2n(c1)Cc1ccccc1-n1ccnc1-2` when you can.
stdout: 203 to 205 °C
